# Subject Of Test: T1, GST-human NOGO-A56 (human, UniProt Q9NQC3 586-785)
# T1 construct: GST-tagged fusion expressed in E. coli BL21 from pGEX-6P1; also called hNOGO; human NOGO 5+6 GST; not shown: Glutathione S-transferase tag encoded by vector pGEX-6P1 (N-terminal, with vector linker)
# T1 sequence: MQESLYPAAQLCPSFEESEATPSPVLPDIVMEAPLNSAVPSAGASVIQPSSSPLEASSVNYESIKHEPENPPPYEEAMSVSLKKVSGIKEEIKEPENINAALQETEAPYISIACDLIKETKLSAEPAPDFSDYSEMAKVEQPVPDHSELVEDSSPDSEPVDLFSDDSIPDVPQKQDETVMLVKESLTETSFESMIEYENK
# Assay: SPR (Biacore), GST-human NOGO-A56 immobilised, purified antibody as analyte; single experiment
Property Label: Kd (nM)
Dear colleague, please return just the value in nM, with no unit written.

Query: Need Kd, item H22L16 (antibody, human IgG1, kappa, V domains shown, human gamma1 mutated constant region, human kappa) VH: QVQLVQSGAEVKKPGASVKVSCKASGYTFTSYWMHWVKQRPGQGLEWIGNINPSNGGTNYNEKFKSKATMTRDTSTSTAYMELSSLRSEDTAVYYCELGQGYWGQGTLVTVSS VL: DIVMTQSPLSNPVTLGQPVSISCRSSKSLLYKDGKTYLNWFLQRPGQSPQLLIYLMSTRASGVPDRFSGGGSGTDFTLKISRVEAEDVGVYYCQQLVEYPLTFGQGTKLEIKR
Result: 1.33
